Attribution: PubChem BioAssay AID686978

test: qHTS for Inhibitors of human tyrosyl-DNA phosphodiesterase 1 (TDP1): qHTS in cells in absence of CPT; conditions: DT40 Tdp1-/- hTDP1 cells, no CPT, ATP luminescence, 48 h; note: nearly all actives have a fitted effect of over 55% in size; note: potency is the fitted concentration of half-maximal effect
In all, about 420,000 compounds went through this assay and about 64,000 (15%) were called active. Inconclusive results (about 27%) are left out. The list is a sample of the results.

Compound | Potency
O=C(Nc1ccccc1)c1ccccc1Br | inactive
CC(=O)NS(=O)(=O)c1ccc(NC(=O)C2C3C=CC(C3)C2C(=O)O)cc1 (stereo unspecified) | inactive
COC(=O)[C@@]1(Cc2ccc(F)cc2)[C@H]2c3cc(C(=O)N(C)C)n(CCc4c[nH]c5ccc(OC)cc45)c3C[C@H]2CN1C(=O)c1ccccc1 | 23.1 µM (active)
CCCCn1c(N)c(N(CCOC)C(=O)c2sc3ccccc3c2Cl)c(=O)[nH]c1=O | inactive
O=C(Nc1cccc(Cl)c1)Nc1nnc(-c2ccccc2)o1 | 16.4 µM (active)
O=C(COC(=O)c1ccccc1Br)Nc1nnc(-c2ccccc2)o1 | inactive

====

assay: qHTS for Inhibitors of human tyrosyl-DNA phosphodiesterase 1 (TDP1): qHTS in cells in absence of CPT; conditions: DT40 Tdp1-/- hTDP1 cells, no CPT, ATP luminescence, 48 h; note: nearly all actives have a fitted effect of over 55% in size
Among all 420,000 compounds or so, about 64,000 (15%) were called active. About 27% were inconclusive and are not listed. Calls come from the whole dose curve; as a rule, active = well fitted inhibition curve with a large enough effect; inconclusive = small, poorly fitted or top-dose-only effect; inactive = flat fitted curve, though single readings scatter. These entries were drawn from the full list.
Outcome codes: y = active, n = inactive

Molecule | Label
CCCCCCCCCCOC(=O)C[N+](C)(C)CC1CCCCC1O (stereo not given) | n
O=C(O)CCCN1C(=O)c2ccccc2Sc2ncccc21 | n
CCN1C(=NCCc2cccnc2)N[C@@H](c2ccccc2)[C@H](C(=O)OC)[C@H]1C | n
Nn1c(SCC(=O)Nc2ccc3c(c2)CCC3)nnc1C1CC1 | n
CCN1C(=NCc2ccc(OC)cc2)N[C@@H](CCc2ccccc2)[C@H](C(=O)NCc2ccc(OC)cc2)[C@H]1C | y

====

assay: qHTS for Inhibitors of human tyrosyl-DNA phosphodiesterase 1 (TDP1): qHTS in cells in absence of CPT; conditions: DT40 Tdp1-/- hTDP1 cells, no CPT, ATP luminescence, 48 h; note: nearly all actives have a fitted effect of over 55% in size
Screen size: about 420,000 compounds; about 64,000 (15%) were called active. Not shown: some 27% with an inconclusive outcome. Calls follow the shape of the dose curve; as a rule, active = well fitted inhibition curve with a large enough effect; inconclusive = small, poorly fitted or top-dose-only effect; inactive = flat fitted curve, though single readings scatter. Not all results are given here.
Outcome codes: true (1) for active, false (0) for inactive

Molecule | Label
COc1ccc(NC(=O)CSc2nc3ccccc3c(=O)n2C)cc1 | true (1)
COc1cc(NS(=O)(=O)c2ccc3ccccc3c2)c2ncccc2c1 | true (1)
C=CC(COCc1ccccc1)N(Cc1ccccc1)S(=O)(=O)c1ccccc1Br (stereo unspecified) | true (1)
Nc1nonc1-n1nnc(C(=O)N/N=C\c2ccncc2)c1CN1CCCCC1 | false (0)
CC(C)CNC(=O)C1(C)CCCN1C(=O)CSc1ccccc1 (stereo unspecified) | false (0)
COCCNS(=O)(=O)c1cc(Br)ccc1OC | false (0)

====

assay: qHTS for Inhibitors of human tyrosyl-DNA phosphodiesterase 1 (TDP1): qHTS in cells in absence of CPT; settings: DT40 Tdp1-/- hTDP1 cells, no CPT, ATP luminescence, 48 h; note: nearly all actives have a fitted effect of over 55% in size
The campaign covered roughly 420,000 compounds. About 64,000 (15%) were called active. Inconclusive results (about 27%) are left out. Calls follow the shape of the dose curve; as a rule, active = well fitted inhibition curve with a large enough effect; inconclusive = small, poorly fitted or top-dose-only effect; inactive = flat fitted curve, though single readings scatter. A selection follows.
Outcome codes: Yes = active, No = inactive

Compound | Label
Cc1cc(NC(=O)/C=C/C(=O)N(c2ccccc2C)C(C(=O)NC2CCCC2)c2ccc(F)cc2)no1 (configuration not stated) | Yes
Cc1ccc(NC(=O)Cn2c(C)csc2=O)cc1 | No
Cc1nn(CC(=O)Nc2ccc(F)cc2)c(=O)c2ccccc12 | No
Cc1ccc(-n2nc(C)c(C(=O)O)c2-n2cccc2)cc1 | No
COc1ccc(NC(=O)c2c(SC)nsc2SC)cc1 | No
COc1ccc(/C=C/C(=O)c2ccc(NS(=O)(=O)c3ccc(C)cc3)cc2)cc1O | Yes
COc1ccc(C(=O)Nc2cc(C)ccc2NC(=O)COc2ccccc2)cc1 | No
Cc1ccc(NC(=O)Cn2sc3ccccc3c2=O)cc1 | Yes
O=C(NC1CCCCC1)c1cc(C2CC2)on1 | No
Cc1c(C)c2ccc(OCC(=O)N3CCN(c4cccc(Cl)c4)CC3)cc2oc1=O | Yes
Cc1cc(NC(=O)CCC(=O)N(c2cccc(F)c2)C(C(=O)NC2CCCC2)c2ccncc2)no1 (configuration not stated) | No
Cc1cc(C)c2nc(NC(=O)c3ccc4c(c3)OCO4)sc2c1 | No
COc1ccc(OCC(=O)N2CCN(C(=O)COc3ccccc3)CC2)cc1 | No
COc1ccc(OC)c(C(C)NC(=S)Nc2ccc(S(=O)(=O)Nc3ncccn3)cc2)c1 (configuration not stated) | No
COc1ccc(NS(=O)(=O)c2ccc(NC(=S)NC(=O)CC(C)C)cc2)cc1 | Yes
O=C(COc1ccc(Cl)cc1)N1CCN(c2cccc(C(F)(F)F)c2)CC1 | Yes
O=C(COc1ccc2c(c1)CCC2)N1CCN(c2ccc(F)cc2)CC1 | No
COc1ccc(N2CCN(C(=O)COc3ccc4c(C)cc(=O)oc4c3)CC2)cc1 | No
CSCCC(NC(=O)COc1ccccc1)C(=O)OCCOc1ccc(F)cc1 (configuration not stated) | No
Cc1cccc(C(C)C)c1NC(=O)COC(=O)C1CC(=O)N(Cc2ccccc2)C1 (configuration not stated) | No
Cc1ccc(NS(=O)(=O)c2ccc(C)c(NC(=O)COc3ccc4ccccc4c3)c2)c(C)c1 | Yes
COc1ccc(NS(=O)(=O)c2ccc(NC(C)=O)cc2)cc1OC | Yes

====

assay: qHTS for Inhibitors of human tyrosyl-DNA phosphodiesterase 1 (TDP1): qHTS in cells in absence of CPT; conditions: DT40 Tdp1-/- hTDP1 cells, no CPT, ATP luminescence, 48 h; note: nearly all actives have a fitted effect of over 55% in size
In all, about 420,000 compounds went through this assay and about 64,000 (15%) were called active. Inconclusive results (about 27%) are left out. Calls come from the whole dose curve; as a rule, active = well fitted inhibition curve with a large enough effect; inconclusive = small, poorly fitted or top-dose-only effect; inactive = flat fitted curve, though single readings scatter. These entries were drawn from the full list.
Outcome codes: active, inactive

Compound | Label
COc1cc2c(cc1OC)C(Cc1cc(OC)c(OC)cc1[N+](=O)[O-])=NCC2 | active
c1ccc(CSCCc2ccncc2)cc1 | inactive
CN(C)Cc1c(C#N)c2ccccc2n1C | inactive
CCOC(=O)C1CCN(C(=O)Nc2ccc(Cl)cc2)CC1 | inactive
CC(C)(C)c1ccc(SCCc2ccncc2)cc1 | active
Cc1c(S(=O)(=O)NCc2ccccc2)c(=O)n(C)c(=O)n1C | inactive
Cn1c(=O)c2c(-c3ccccc3Br)n(Cc3ccccc3)cc2n(C)c1=O | active
COc1ccc(OCC(O)CNCCNc2nccc(C(F)(F)F)n2)cc1 (stereo unspecified) | inactive
NS(=O)(=O)c1ccc(NC(=O)CSc2nnc3c(n2)[nH]c2ccccc23)cc1 | inactive
CSCCC(NC(=O)COc1ccccc1)C(=O)Nc1ccc(C)cc1 (stereo unspecified) | inactive
COc1cc(CNCc2ccc3c(c2)OCO3)c([N+](=O)[O-])cc1OC | inactive

====

assay: qHTS for Inhibitors of human tyrosyl-DNA phosphodiesterase 1 (TDP1): qHTS in cells in absence of CPT; conditions: DT40 Tdp1-/- hTDP1 cells, no CPT, ATP luminescence, 48 h; note: nearly all actives have a fitted effect of over 55% in size
Out of some 420,000 compounds screened, about 64,000 (15%) were called active. About 27% were inconclusive and are not listed. Calls follow the shape of the dose curve; as a rule, active = well fitted inhibition curve with a large enough effect; inconclusive = small, poorly fitted or top-dose-only effect; inactive = flat fitted curve, though single readings scatter. The list is a sample of the results.
Outcome codes: label 1 (active), label 0 (inactive)

Compound | Label
CC1OC2C(OC1C)N(S(C)(=O)=O)CCN2S(C)(=O)=O (configuration not stated) | label 0
CCOC(=O)c1cnc(-n2nc(C)cc2C)nc1Nc1cccc(C(C)=O)c1 | label 1
Cc1nc2cc(NC(=O)NCc3ccccc3)ccc2o1 | label 0
O=C(Nc1ccnc(-c2ccncc2)n1)c1cccs1 | label 0
COc1ccc(C2CC(=O)NC(=O)C2)cc1 | label 0
CCOC(=O)c1cnc(-n2nc(C)cc2C)nc1-n1nc(C)cc1C | label 0
CCCC(=O)N1CCC(CCC(=O)NC2CC2)CC1 | label 0
COc1ccc(C2OC(CCc3ccccc3)Cc3[nH]c(=S)[nH]c(=O)c32)cc1 (configuration not stated) | label 1
CC(=O)NC1(c2cccc(F)c2)CCN(CC(=O)NC(C)C)CC1 | label 0
CCOc1n[nH]c(-c2ccccc2)n1 | label 0
COc1ccc(N2C(=O)C(Cc3ccccc3)NC2=S)cc1 (configuration not stated) | label 0
CCCc1cc(=O)oc2c(C)c(OC(C)C(=O)NCC(O)c3ccccc3)ccc12 (configuration not stated) | label 0

====

experiment: qHTS for Inhibitors of human tyrosyl-DNA phosphodiesterase 1 (TDP1): qHTS in cells in absence of CPT; conditions: DT40 Tdp1-/- hTDP1 cells, no CPT, ATP luminescence, 48 h; note: nearly all actives have a fitted effect of over 55% in size
Among all 420,000 compounds or so, about 64,000 (15%) were called active. Inconclusive results (about 27%) are left out. Calls follow the shape of the dose curve; as a rule, active = well fitted inhibition curve with a large enough effect; inconclusive = small, poorly fitted or top-dose-only effect; inactive = flat fitted curve, though single readings scatter. Not all results are given here.
Outcome codes: T = active, F = inactive

Compound | Label
COc1ccc(CCNC(=O)COC(=O)C2CC2C)cc1 (stereo not given) | F
Nc1ncnc2c1ncn2[C@@H]1O[C@H](C(=O)N2CCCN(Cc3ccccc3F)CC2)[C@@H](O)[C@H]1O | F
Cn1cnc([N+](=O)[O-])c1Sc1n[nH]c(N)n1 | F
COC(=O)[C@@H](NC(=O)Nc1cc(Cl)ccc1C)C(C)C | F
Cn1cnc([N+](=O)[O-])c1Nc1ccccc1O | F
Cc1noc(C)c1NC(=O)Nc1ccc2c(c1)C(=O)N([C@H](C)CO)C[C@H](C)[C@@H](CN(C)C(=O)Nc1ccccc1)O2 | F
O=C(NCCc1ccccn1)c1cc(-c2ccc(Cl)cc2)nc2ccccc12 | T
COC(=O)C1=CN(Cc2ccc(OC)cc2)C=C(C(=O)OC)C1c1ccc(O)c(OC)c1 | F
CC(=O)N1CSCC1C(=O)O (stereo not given) | F
CN(CC(=O)NCCc1ccccn1)S(=O)(=O)c1ccc(Cl)cc1 | F
